System: TK-10
Experiment: Growth inhibition of human TK10 cells at 10 uM after 48 hrs by SRB assay
Assay type: functional
Details: TK-10, 48 h, read-out: GI
VALUE TYPE: inhibition of growth at 10 µM (%)
Kindly provide the numeric value in % only, without the unit symbol.

GET /value?item= "O=c1c2cccc3c(Nc4ccc(Br)cn4)ccc(c32)c2nc3ccccc3n12" &field=inhibition of growth at 10 µM returns 21.9

GET /value?item= "O=c1c2cccc3c(Nc4ccc(F)cc4)ccc(c32)c2nc3ccccc3n12" &field=inhibition of growth at 10 µM returns 24.7

GET /value?item= "O=c1c2cccc3c(NC4CCCCC4)ccc(c32)c2nc3ccccc3n12" &field=inhibition of growth at 10 µM returns 22.6

GET /value?item= "Nc1ccc(Sc2ccc3c4c2cccc4c(=O)n2c4ccccc4nc32)cc1" &field=inhibition of growth at 10 µM returns 21.4

GET /value?item= "O=c1[nH]cc(F)c(=O)[nH]1" &field=inhibition of growth at 10 µM returns 66.9

GET /value?item= "CCCCNc1ccc2c3c1cccc3c(=O)n1c3ccccc3nc21" &field=inhibition of growth at 10 µM returns 29.8

GET /value?item= "O=c1c2cccc3c(Nc4ccccn4)ccc(c32)c2nc3ccccc3n12" &field=inhibition of growth at 10 µM returns 34.2

GET /value?item= "O=c1c2cccc3c(N4CCOCC4)ccc(c32)c2nc3ccccc3n12" &field=inhibition of growth at 10 µM returns 28.2
